The measured values listed here are drawn from PubChem BioAssay (NCI).

system: SNB-19 CNS; test: NCI tumour cell line growth inhibition, 48 h
observed-property: TGI

See these solved cases before continuing.
[
  {
    "compound": "COc1ccc(NS(=O)(=O)c2ccc3ncn(NS(=O)(=O)c4ccc(I)cc4)c(=O)c3c2)cc1",
    "TGI": "> 100 µM"
  },
  {
    "compound": "N=C(N)SCCSC(=N)N",
    "TGI": "> 100 µM"
  },
  {
    "compound": "O=C(O)[C@@]1(Cc2ccc(O)cc2)C[C@@H]2Cc3ccccc3N2N1",
    "TGI": "> 100 µM"
  },
  {
    "compound": "COC(=O)c1oc([N+](=O)[O-])c(-c2ccccc2)c1-c1ccccc1",
    "TGI": "> 100 µM"
  },
  {
    "compound": "Nc1nc(N)c2cc(Sc3ccc(Cl)cc3)ccc2n1",
    "TGI": "20.8 µM"
  },
  {
    "compound": "O=C(NC/C=C/CO)c1ccccc1",
    "TGI": "> 100 µM"
  }
]

Kindly review the next compound as well.
(Q) Record request: TGI value, item COc1cc(S(=O)(=O)Nc2ccc(-c3csc(/N=C\c4ccccc4O)n3)cc2)ccc1Cl
(A) > 100 µM

###

system: HCC-2998 colon; assay: NCI tumour cell line growth inhibition, 48 h
observed-property: GI50

See these solved cases before continuing.
[
  {
    "smiles-data": "O=C1/C(=C\\c2ccc(Cl)cc2)CN(C(=O)c2ccccc2)C/C1=C\\c1ccc(Cl)cc1",
    "GI50": "2030 nM"
  },
  {
    "smiles-data": "COc1cc2c3c(n(CCCNC(C)(C)CO)c(=O)c2cc1OC)-c1cc2c(cc1C3=O)OCO2",
    "GI50": "1390 nM"
  },
  {
    "smiles-data": "NNC(=S)N/N=C/c1ccccn1",
    "GI50": "3120 nM"
  }
]

(Q) Record request: GI50 value, item COc1ccc(/C=C/C(=O)c2ccc(B(O)O)cc2)cc1O
(A) 6460 nM

###

system: SNB-75 CNS; assay: NCI tumour cell line growth inhibition, 48 h
// reported TGI for each item listed

See these solved cases before continuing.
[
  {
    "molecule": "COc1ccc(/C=C2\\C(=O)Nc3ccccc32)cc1OC",
    "observed-property": "TGI",
    "endpoint-value": "81.3 µM"
  },
  {
    "molecule": "O=C1C2=C(c3ccccc31)C(c1ccccc1Cl)NC(=S)N2 (stereo unspecified)",
    "observed-property": "TGI",
    "endpoint-value": "> 100 µM"
  },
  {
    "molecule": "O=C1/C(=C\\c2ccc(Cl)cc2)CN(C(=O)c2ccccc2)C/C1=C\\c1ccc(Cl)cc1",
    "observed-property": "TGI",
    "endpoint-value": "> 71.8 µM"
  },
  {
    "molecule": "CCOC(=O)C1C(c2ccccc2)C2(C#N)C(=N)OC1(C)C2(C#N)C#N (stereo unspecified)",
    "observed-property": "TGI",
    "endpoint-value": "34.7 µM"
  },
  {
    "molecule": "O=c1[nH]ncc2[nH]c(-c3ccccc3)cc12",
    "observed-property": "TGI",
    "endpoint-value": "77 µM"
  }
]

Kindly review the next molecule as well.
(Q) Record request: TGI value, item CC12OC(C(=O)C13CC3)C1C(=O)c3cccc(O)c3C(=O)C12 (stereo unspecified)
(A) > 37.4 µM
